Molecular target: ~100 representative kinases (Homo sapiens, UniProt P29317)
Construct: Recombinant protein kinase domains with a concentration of 2 μM
Sequence (P29317 24-976): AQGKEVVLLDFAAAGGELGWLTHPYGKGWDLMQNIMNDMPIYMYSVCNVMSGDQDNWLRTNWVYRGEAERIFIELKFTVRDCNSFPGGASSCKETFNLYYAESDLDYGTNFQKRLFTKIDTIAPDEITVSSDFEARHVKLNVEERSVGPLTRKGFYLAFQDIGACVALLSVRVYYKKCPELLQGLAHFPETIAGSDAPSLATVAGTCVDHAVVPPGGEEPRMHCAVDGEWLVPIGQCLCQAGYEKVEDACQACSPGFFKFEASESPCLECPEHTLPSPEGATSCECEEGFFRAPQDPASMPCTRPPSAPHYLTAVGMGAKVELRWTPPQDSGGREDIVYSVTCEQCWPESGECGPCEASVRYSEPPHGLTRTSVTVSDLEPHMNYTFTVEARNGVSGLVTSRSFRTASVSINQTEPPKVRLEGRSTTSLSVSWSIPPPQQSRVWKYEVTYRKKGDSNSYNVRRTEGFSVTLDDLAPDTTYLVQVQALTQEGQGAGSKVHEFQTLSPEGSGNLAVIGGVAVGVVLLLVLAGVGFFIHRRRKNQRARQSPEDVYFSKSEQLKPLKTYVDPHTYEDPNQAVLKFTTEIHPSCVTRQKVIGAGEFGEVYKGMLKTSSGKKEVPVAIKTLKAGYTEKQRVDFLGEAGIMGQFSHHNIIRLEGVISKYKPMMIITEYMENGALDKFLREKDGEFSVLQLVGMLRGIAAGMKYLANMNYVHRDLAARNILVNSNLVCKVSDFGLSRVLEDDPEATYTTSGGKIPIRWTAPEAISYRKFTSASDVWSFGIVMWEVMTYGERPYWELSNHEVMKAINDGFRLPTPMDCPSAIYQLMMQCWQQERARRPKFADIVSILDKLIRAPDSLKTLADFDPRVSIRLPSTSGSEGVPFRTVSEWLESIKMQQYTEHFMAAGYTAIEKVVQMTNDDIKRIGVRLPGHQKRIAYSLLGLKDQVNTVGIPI
Test: DSF 100 kinase selectivity screen;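 note: compound tested at 20 µM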
Assay type: binding
Conditions: Protein EPHA2; average of three replicates
Method: Recombinant protein kinase domains with a concentration of 2 μM were mixed with a 20 μM compound solution in dimethyl sulfoxide (DMSO), 20 mM Hepes (pH 7.5), and 500 mM NaCl. SYPRO Orange (5000×, Invitrogen) was added as a fluorescence probe (1μl/ml). Subsequently, temperature-dependent protein unfolding profiles were measured using the QuantStudio 5 realtime PCR machine (Thermo Fisher Scientific, Waltham, MA, USA). […] The temperature was raised with a step rate of 3°C/min. […]
Here the recorded dTm is given for each entry.
Numeric only. Scale: K

# compound, output_unit, reported_measurement
records = [
    ("O=C(Nc1cccc(-c2c[nH]c3ncnc(N4CCOCC4)c23)c1)C1(C(=O)Nc2ccc(F)c(Cl)c2)CC1 [Compound 18]", "K", 4.93),
]

Could you now consider this next compound?
Reported dTm, compound O=C(Nc1ccc(F)cc1)C1(C(=O)Nc2cccc(-c3c[nH]c4ncnc(N5CCOCC5)c34)c2)CC1 [Compound 2] : ____
6.37
